Target: α1 receptor
Assay: α1 receptor radioligand binding (3H-prazosin)
Conditions: rat cerebral cortex, mean ± SEM of three experiments, read-out: Receptor Affinity Ki ± SEM α1
Measured Ki values are reported for all entries that follow.
Measure: Ki (nM)

| Compound | Measurement unit | Obs value |
| --- | --- | --- |
| CC1(C)CC(=O)c2ccc(OCCCCN3CCC(c4noc5cc(F)ccc45)CC3)cc2O1 [Compound 6j] | nM | 237 |
| O=C1CC2(CCCCC2)Oc2cc(OCCCN3CCC(c4noc5cc(F)ccc45)CC3)ccc21 [Compound 9g] | nM | 138 |
| O=C1CC2(CCCCC2)Oc2cc(OCCCCN3CCC(c4noc5cc(F)ccc45)CC3)ccc21 [Compound 9h] | nM | 102 |
| O=C1CC2(CCCC2)Oc2cc(OCCCCN3CCC(c4noc5cc(F)ccc45)CC3)ccc21 [Compound 9d] | nM | 162 |

* * *

Measured ED50 values are reported for all entries that follow.
Experiment: in vivo
Details: mouse, po

| Compound | ED50 |
| --- | --- |
| CN1CCN(C2=Nc3cc(Cl)ccc3Nc3ccccc32)CC1 [Clozapine, reference compound] | 50 mg/kg |
| CC1(C)CC(=O)c2ccc(OCCCCN3CCC(c4noc5cc(F)ccc45)CC3)cc2O1 [Compound 6j] | 56.8 mg/kg |

* * *

Consider the following Ki values measured on D3 receptor (Rattus norvegicus, UniProt P19020).
Sequence (P19020 whole entry): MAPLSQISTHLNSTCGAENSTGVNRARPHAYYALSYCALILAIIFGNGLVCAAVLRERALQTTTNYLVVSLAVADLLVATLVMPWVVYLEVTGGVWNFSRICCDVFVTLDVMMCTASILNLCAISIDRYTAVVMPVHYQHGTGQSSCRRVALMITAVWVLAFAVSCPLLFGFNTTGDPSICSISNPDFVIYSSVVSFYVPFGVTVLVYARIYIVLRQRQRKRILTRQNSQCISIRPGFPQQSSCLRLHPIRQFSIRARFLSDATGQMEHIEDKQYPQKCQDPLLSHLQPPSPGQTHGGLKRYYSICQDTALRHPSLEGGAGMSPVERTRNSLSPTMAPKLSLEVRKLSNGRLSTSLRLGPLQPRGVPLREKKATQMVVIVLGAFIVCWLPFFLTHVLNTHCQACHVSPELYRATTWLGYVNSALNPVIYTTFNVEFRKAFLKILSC
Measure: Ki (nM)

| Chemical smiles | Obs value |
| --- | --- |
| O=C1CC2(CCCCC2)Oc2cc(OCCCN3CCC(c4noc5cc(F)ccc45)CC3)ccc21 | 35.2 |
| CC1(C)CC(=O)c2ccc(OCCCCN3CCC(c4noc5cc(F)ccc45)CC3)cc2O1 | 25.4 |
| O=C1CC2(CCCC2)Oc2cc(OCCCCN3CCC(c4noc5cc(F)ccc45)CC3)ccc21 | 42.6 |
| O=C1CC2(CCCCC2)Oc2cc(OCCCCN3CCC(c4noc5cc(F)ccc45)CC3)ccc21 | 38.6 |

* * *

Target: 5-HT2A receptor (Rattus norvegicus)
Sequence (P14842 whole entry): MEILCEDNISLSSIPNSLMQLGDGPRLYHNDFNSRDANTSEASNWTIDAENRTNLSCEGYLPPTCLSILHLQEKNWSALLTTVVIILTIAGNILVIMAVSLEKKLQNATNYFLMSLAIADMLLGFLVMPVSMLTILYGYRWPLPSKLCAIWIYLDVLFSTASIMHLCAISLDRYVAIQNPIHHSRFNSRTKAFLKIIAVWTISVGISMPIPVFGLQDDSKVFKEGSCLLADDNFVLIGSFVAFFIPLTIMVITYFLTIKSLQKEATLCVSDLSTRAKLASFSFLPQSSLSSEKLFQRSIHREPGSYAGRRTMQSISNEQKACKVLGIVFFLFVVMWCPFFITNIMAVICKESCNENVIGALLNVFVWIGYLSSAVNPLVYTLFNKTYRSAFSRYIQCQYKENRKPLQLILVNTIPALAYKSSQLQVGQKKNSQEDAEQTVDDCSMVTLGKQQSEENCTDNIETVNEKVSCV
Experiment: 5-HT2A receptor radioligand binding (3H-ketanserin)
Conditions: Receptor Affinity Ki ± SEM 5-HT2A

| Chemical smiles | Measurement unit | Ki |
| --- | --- | --- |
| CC1(C)CC(=O)c2ccc(OCCCCN3CCC(c4noc5cc(F)ccc45)CC3)cc2O1 | nM | 3.2 |

* * *

Target: 5-HT2C receptor (Rattus norvegicus, UniProt P08909)
Sequence (P08909 33-460): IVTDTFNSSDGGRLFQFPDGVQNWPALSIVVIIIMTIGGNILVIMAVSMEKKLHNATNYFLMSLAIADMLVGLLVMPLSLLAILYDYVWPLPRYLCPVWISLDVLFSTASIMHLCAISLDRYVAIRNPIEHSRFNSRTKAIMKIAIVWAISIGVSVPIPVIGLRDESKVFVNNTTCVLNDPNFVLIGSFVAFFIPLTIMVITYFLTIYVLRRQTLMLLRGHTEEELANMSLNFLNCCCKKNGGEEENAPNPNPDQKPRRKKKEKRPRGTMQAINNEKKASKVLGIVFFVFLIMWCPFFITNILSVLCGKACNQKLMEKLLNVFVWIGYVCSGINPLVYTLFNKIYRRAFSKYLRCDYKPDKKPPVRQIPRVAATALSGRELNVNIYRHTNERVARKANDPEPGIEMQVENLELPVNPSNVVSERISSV

| Chemical smiles | Ki [nM] |
| --- | --- |
| CC1(C)CC(=O)c2ccc(OCCCCN3CCC(c4noc5cc(F)ccc45)CC3)cc2O1 | 566 |
| O=C1CC2(CCCCC2)Oc2cc(OCCCN3CCC(c4noc5cc(F)ccc45)CC3)ccc21 | 401 |
| O=C1CC2(CCCC2)Oc2cc(OCCCCN3CCC(c4noc5cc(F)ccc45)CC3)ccc21 | 426 |
| O=C1CC2(CCCCC2)Oc2cc(OCCCCN3CCC(c4noc5cc(F)ccc45)CC3)ccc21 | 528 |

All figures here come from paper PMC7571155.
